Property: DR6w19 binding information; scope: individual sequences
tested-on: HLA-DRB1*1302 (DR6w19) (Homo sapiens, UniProt P01903+P01911, A100E/A169T/K41T/L162R/M171V/P40S/Q125H/Q178H/Q39Y/Q99D/R42S/S66N/T262R/V115G/W38E/Y61H)
assay-procedure: purified HLA class II binding assay, DRB1*1302 (DR6w19)
condition-details: Table XXb, HIV DR 3a motif peptides

INSERT INTO measurements (construct_sequence, observed) VALUES
  ('VIQGNSDIK', 0.0447);

Can you look up the measured DR6w19 binding information of IKKEKVYLA for me?
−0.0003

Consider the sequence IKQEFGIPY and give its measured DR6w19 binding information.
0.0123

Please look up its DR6w19 binding information: IVTDSQYAL
0.0108

If you can, please state the reported DR6w19 binding information value of FYVDGAANR .
−0.0002

----------
tested-on: HLA-DRB1*1302 (DR6w19) (Homo sapiens, UniProt P01903+P01911, A100E/A169T/K41T/L162R/M171V/P40S/Q125H/Q178H/Q39Y/Q99D/R42S/S66N/T262R/V115G/W38E/Y61H)
assay-procedure: purified HLA class II binding assay, DRB1*1302 (DR6w19)
quantity: IC50 (nM)
The reply should contain only the number, in nM.

Name the reported IC50 value associated with the compound CC(C)C[C@H](NC(=O)[C@H](CCCCN)NC(=O)[C@@H](NC(=O)[C@H](CC(C)C)NC(=O)[C@@H]1CCCN1C(=O)[C@@H]1CCCN1C(=O)[C@@H](NC(=O)[C@H](CC(N)=O)NC(=O)[C@@H](NC(=O)[C@H](Cc1ccccc1)NC(=O)[C@H](CCC(=O)O)NC(=O)[C@@H](N)Cc1c[nH]c2ccccc12)C(C)C)[C@@H](C)O)C(C)C)C(=O)N[C@@H](Cc1c[nH]c2ccccc12)C(=O)N[C@@H](Cc1ccc(O)cc1)C(=O)N[C@@H](CCC(N)=O)C(=O)O [Peptide 27.0354]
90

----------
tested-on: HLA-A*0301 (Homo sapiens)
Construct: endogenous in cells; host or cells: GM3107
assay-procedure: purified HLA class I binding assay, A*0301
No end group written: not given here.
Measured pIC50 of individual entries
pIC50 field: float, defined as -log10 of concentration (mol/L).

// known answers, use as guide
INSERT INTO results (construct_sequence, tested_on, quantity, observed) VALUES
  ('TIKIGGQLK [1273.05]', 'HLA-A*0301 (Homo sapiens)', 'pIC50', 7.39),
  ('RIVELLGRR [1273.04]', 'HLA-A*0301 (Homo sapiens)', 'pIC50', 6.70);

Bench note: what pIC50 did KLAGRWPVK [1069.44] show?
8.07

Value lookup for pIC50; key = TTLFCASDAK [1273.07]
6.92

----------
Quick reference: pIC50 of the listed items.
tested-on: HLA-A*0101 (Homo sapiens, UniProt P04439, A114D/A174V/A182V/D101N/D185E/E176A/E190D/L180R/Q94H/R68K/S129P/T187R/V100A/V91M/W191G)
assay-procedure: biochemical
Type: binding
No end group written: not given here.
Remember the convention: pIC50 equals -log10 of concentration in molar.

INSERT INTO results (construct_sequence, observed) VALUES
  ('EVNIVTDSQY [Peptide 1.0431]', 6.33);

Which value of pIC50 has been reported for VTVLDVGDAY [Peptide 1069.26] in the records?
6.36

Every entry's value here was drawn from patent US20050271676A1.
